inhibition values for the compounds below.
tgt: Solute carrier family 2, facilitated glucose transporter member 1 (Homo sapiens)
assay: ST_JUDE_LEISH: Cytotoxicity at 2uM final concentration against transgenic Leishmania Mexicana promastigotes LmGLUT1 that are glucose transport deficient and complemented with the human glucose transporter GLUT1. Activity is measured by DNA content using SYBR green in vitro
Type: functional
Unit % implied. Number only.

Guide cases for inhibition, answers given:
CCCCc1cc(NCc2ccncc2)nc(Nc2ccc(OC)cc2)n1	12.9
Cc1cccc2nc(-c3ccc(-c4cccc(CNCCN(C)C)c4)cc3)[nH]c12	3.31
Cc1ccc(NC(=O)Nc2cccc(Cl)c2)cc1-c1ccc(C(=O)Nc2ccncc2)cc1	-1.84
O=C(Cc1ccccc1)NC(CCN1CCC(O)(c2cccc(C(F)(F)F)c2)CC1)c1ccc(Cl)c(Cl)c1 (stereo not given)	4.97

So what's the measured inhibition for this one? Cn1c(Nc2cc(C(C)(C)C)on2)nc2cc(Nc3ccnc(Nc4cccc(CS(C)(=O)=O)c4)n3)ccc21
0.14
